system: HCT-116; assay: Compound was tested for its in vitro cytotoxicity in HCT-VP35 cell line after 72 hours; assay type: functional, cell-based; details: Homo sapiens, HCT-116, 72 h
MEASURE: IC50 (µg/mL)

INSERT INTO assay_data (compound, measure, inequality_sign, endpoint_value) VALUES
  ('COc1cc([C@@H]2c3cc4c(cc3[C@@H](O[C@@H]3O[C@@H]5CO[C@@H](C)O[C@H]5[C@H](O)[C@H]3O)[C@H]3COC(=O)[C@H]23)OCO4)cc(OC)c1O [ETOPOSIDE]', 'IC50', '=', 1.78),
  ('COc1cc([C@@H]2c3cc(OC(C)=O)c(OC(C)=O)cc3[C@@H](O[C@@H]3O[C@@H]4CO[C@@H](C)O[C@H]4[C@H](O)[C@H]3O)[C@H]3COC(=O)[C@H]23)cc(OC)c1O', 'IC50', '=', 27.1),
  ('COc1cc([C@@H]2c3cc4oc(=S)oc4cc3[C@@H](O[C@@H]3O[C@@H]4CO[C@@H](C)O[C@H]4[C@H](O)[C@H]3O)[C@H]3COC(=O)[C@H]23)cc(OC)c1O', 'IC50', '>', 15.6);
